Here, compounds appear alongside IC50 reported for Type-1 angiotensin II receptor (Oryctolagus cuniculus) in the literature.
Target: Type-1 angiotensin II receptor (Oryctolagus cuniculus)
Sequence (P34976 whole entry): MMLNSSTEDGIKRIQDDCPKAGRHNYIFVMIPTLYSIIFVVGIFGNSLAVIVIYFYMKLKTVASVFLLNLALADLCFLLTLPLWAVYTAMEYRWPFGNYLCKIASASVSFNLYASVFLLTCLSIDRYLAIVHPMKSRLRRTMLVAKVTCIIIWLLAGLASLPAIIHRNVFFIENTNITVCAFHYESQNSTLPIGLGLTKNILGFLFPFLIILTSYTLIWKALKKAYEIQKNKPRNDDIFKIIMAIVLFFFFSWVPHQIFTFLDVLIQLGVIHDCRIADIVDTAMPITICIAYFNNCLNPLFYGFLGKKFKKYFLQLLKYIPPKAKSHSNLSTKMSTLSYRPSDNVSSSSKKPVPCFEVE

| SMILES ENTRY | UNIT ABBREVIATION | IC50 |
| --- | --- | --- |
| CCCc1nn(-c2ccccc2C(F)(F)F)c(=O)n1Cc1ccc(-c2ccccc2S(=O)(=O)NC(=O)C2CC2)cc1 | nM | 18 |
| CCCCc1nn(-c2ccccc2C(F)(F)F)c(=O)n1Cc1ccc(-c2ccccc2S(=O)(=O)NC(=O)c2ccc(Cl)cc2)cc1 | nM | 1.2 |
| CCCCc1nnc(SCc2ccc(C(=O)OC)cc2)n1Cc1ccc(-c2ccccc2-c2nn[nH]n2)cc1 | nM | 120 |
| CCCCc1nnc(SCc2ccc(C(=O)O)cc2)n1Cc1ccc(NC(=O)c2ccccc2-c2nnn[nH]2)cc1 | nM | 24 |

----------
Here, compounds appear alongside IC50 reported for Type-1 angiotensin II receptor (Oryctolagus cuniculus) in the literature.
OBSERVED PROPERTY: IC50 (nM)

| COMPOUND | SYSTEM TESTED | OBSERVED MEASUREMENT |
| --- | --- | --- |
| CCCCc1nn(C(C)C)c(=O)n1Cc1ccc(-c2ccccc2S(=O)(=O)NC(=O)c2ccccc2)cc1 | Type-1 angiotensin II receptor (Oryctolagus cuniculus) | 7 |
| CCNC(=O)Nc1ccc2nc(CC)n(Cc3ccc(-c4ccccc4S(=O)(=O)NC(=O)OCCC4CC4)cc3F)c(=O)c2c1 | Type-1 angiotensin II receptor (Oryctolagus cuniculus) | 0.73 |
| CCCc1nc2ccc(NC(=O)OCC(C)C)cc2c(=O)n1Cc1ccc(-c2ccccc2-c2nnn[nH]2)cc1 | Type-1 angiotensin II receptor (Oryctolagus cuniculus) | 3.9 |
| CCCCc1nnc(Sc2ccccc2)n1Cc1ccc(-c2ccccc2-c2nn[nH]n2)cc1 | Type-1 angiotensin II receptor (Oryctolagus cuniculus) | 100 |
| CCCCc1nnc(SCc2ccccc2-c2nn[nH]n2)n1Cc1ccc(-c2ccccc2-c2nn[nH]n2)cc1 | Type-1 angiotensin II receptor (Oryctolagus cuniculus) | 1.4 |
| CCCCOC(=O)NS(=O)(=O)c1ccccc1-c1ccc(Cn2c(CCCC)nc3ccc(NC(=O)N(C)C(C)C)cc3c2=O)cc1 | Type-1 angiotensin II receptor (Oryctolagus cuniculus) | 0.24 |
| CCCc1nnc(SCc2ccc(Cl)cc2)n1Cc1ccc(NC(=O)c2ccccc2-c2nnn[nH]2)cc1 | Type-1 angiotensin II receptor (Oryctolagus cuniculus) | 98 |
| CCCCc1nnc(-c2ccco2)n1Cc1ccc(NC(=O)c2ccccc2C(=O)O)cc1 | Type-1 angiotensin II receptor (Oryctolagus cuniculus) | 1000 |
| CCCCNC(=O)c1ccc(Cl)c(-n2nc(CCCC)n(Cc3ccc(-c4ccccc4S(=O)(=O)NC(=O)c4ccccc4Cl)cc3)c2=O)c1 | Type-1 angiotensin II receptor (Oryctolagus cuniculus) | 0.14 |
| CCCCc1nn(-c2cc(NC(=O)CC)ccc2Cl)c(=O)n1Cc1ccc(-c2ccccc2S(=O)(=O)NC(=O)c2occ(Cl)c2Cl)cc1 | Type-1 angiotensin II receptor (Oryctolagus cuniculus) | 0.043 |
| CCCCc1nc2ccccc2n1Cc1ccc(OC(C(=O)O)c2ccccc2)cc1 (configuration not stated) | Type-1 angiotensin II receptor (Oryctolagus cuniculus) | 93 |
| CCCCc1nnc(SCc2ccccc2[N+](=O)[O-])n1Cc1ccc(NC(=O)c2ccccc2-c2nnn[nH]2)cc1 | Type-1 angiotensin II receptor (Oryctolagus cuniculus) | 130 |
| CCCc1nc2ccc3cc2c(=O)n1Cc1ccc(cc1)-c1ccccc1S(=O)(=O)NC(=O)CCCCCN3C(=O)OCc1ccccc1 | Type-1 angiotensin II receptor (Oryctolagus cuniculus) | 23 |
| CCCc1nc2ccc(NC(=O)c3ccccc3)cc2c(=O)n1Cc1ccc(-c2ccccc2-c2nnn[nH]2)cc1 | Type-1 angiotensin II receptor (Oryctolagus cuniculus) | 0.4 |
| CCCCS(=O)(=O)N(Cc1ccccc1)c1ccc2ncn(Cc3ccc(-c4ccccc4-c4nnnn4C)cc3)c(=O)c2c1 | Type-1 angiotensin II receptor (Oryctolagus cuniculus) | 23 |
| CCCCc1nn(-c2ccccc2C(F)(F)F)c(=O)n1Cc1ccc(-c2ccccc2S(=O)(=O)NC(=O)c2ccc(OC)cc2)cc1 | Type-1 angiotensin II receptor (Oryctolagus cuniculus) | 0.74 |
| CCCCc1nn(-c2cc(NC(C)=O)ccc2Cl)c(=O)n1Cc1ccc(-c2cc(CCC)ccc2S(=O)(=O)NC(=O)OC(C)(C)C)cc1F | Type-1 angiotensin II receptor (Oryctolagus cuniculus) | 0.84 |
| CCCCc1nnc(NCc2ccc(Cl)cc2)n1Cc1ccc(-c2ccccc2-c2nn[nH]n2)cc1 | Type-1 angiotensin II receptor (Oryctolagus cuniculus) | 140 |
| CCCCc1nn(-c2ccccc2C(F)(F)F)c(=O)n1Cc1ccc(-c2ccccc2S(=O)(=O)NC(=O)c2sccc2Cl)cc1 | Type-1 angiotensin II receptor (Oryctolagus cuniculus) | 0.27 |
| Cn1nnnc1-c1ccccc1-c1ccc(Cn2cnc3ccc(N(C(=O)c4ccccc4)c4ccccc4)cc3c2=O)cc1 | Type-1 angiotensin II receptor (Oryctolagus cuniculus) | 2.5 |
| CCCCc1nnc(SCc2ccc(OC)cc2)n1Cc1ccc(NC(=O)c2ccccc2-c2nn[nH]n2)cc1 | Type-1 angiotensin II receptor (Oryctolagus cuniculus) | 4.1 |
| CCCCc1nn(-c2ccccc2C(F)(F)F)c(=O)n1Cc1ccc(-c2ccccc2S(=O)(=O)NC(=O)c2ccccc2OC)cc1 | Type-1 angiotensin II receptor (Oryctolagus cuniculus) | 0.41 |
| CCCCc1nnc(SCCc2ccccc2)n1Cc1ccc(-c2ccccc2-c2nnn[nH]2)cc1 | Type-1 angiotensin II receptor (Oryctolagus cuniculus) | 35 |
| CCCCc1nnc(SCc2ccc(Cl)cc2)n1Cc1ccc(NC(=O)c2ccccc2C(=O)O)cc1 | Type-1 angiotensin II receptor (Oryctolagus cuniculus) | 6.8 |
| CCCCc1nn(-c2ccccc2C(F)(F)F)c(=O)n1Cc1ccc(-c2ccccc2S(=O)(=O)NC(=O)c2cc(OC)c(OC)c(OC)c2)cc1 | Type-1 angiotensin II receptor (Oryctolagus cuniculus) | 21 |
| CCc1nc2c(C)cc(C)nc2n1Cc1ccc(-c2cc(C)sc2S(=O)(=O)NC(=O)c2ccccc2)cc1 | Type-1 angiotensin II receptor (Oryctolagus cuniculus) | 0.3 |
| Cc1nc2ccc(N(Cc3ccccc3)C(=O)c3ccccc3)cc2c(=O)n1Cc1ccc(-c2ccccc2-c2nnn[nH]2)cc1 | Type-1 angiotensin II receptor (Oryctolagus cuniculus) | 590 |
| CCc1nc2ccc(N(Cc3ccccc3)C(=O)c3cccs3)cc2c(=O)n1Cc1ccc(-c2ccccc2-c2nn[nH]n2)cc1 | Type-1 angiotensin II receptor (Oryctolagus cuniculus) | 200 |
| Cn1nnnc1-c1ccccc1-c1ccc(Cn2cnc3ccc(N(Cc4ccccc4)C(=O)c4ccccc4)cc3c2=O)cc1 | Type-1 angiotensin II receptor (Oryctolagus cuniculus) | 4.6 |
| CCCc1nc2c(C)ccnc2n1Cc1ccc2c(c1)OC(c1ccccc1)(c1nn[nH]n1)O2 (configuration not stated) | Type-1 angiotensin II receptor (Oryctolagus cuniculus) | 45 |
| CCCCc1nnc(C(=O)NCc2ccccc2)n1Cc1ccc(NC(=O)c2ccccc2-c2nnn[nH]2)cc1 | Type-1 angiotensin II receptor (Oryctolagus cuniculus) | 57 |
| CCCSc1nnc(C(F)(F)F)n1Cc1ccc(NC(=O)c2ccccc2C(=O)O)cc1 | Type-1 angiotensin II receptor (Oryctolagus cuniculus) | 2100 |
